- test_description: method code SF-AS, from PMID: 6889867
- test_parameters: pH 7.4
value_type: logD
The answer should be written as a number, with no unit following it.

Example molecules with recorded logD:
1) COc1cncc(OC)c1Cc1cnc(N)nc1N :: 1.48
2) CCOc1cc(Cc2cnc(N)nc2N)cc(OCC)c1C(C)=O :: 1.85
3) COc1cc(Cc2cnc(N)nc2N)cc(OC)c1C#N :: 1.2
4) CCOc1cc(Cc2cnc(N)nc2N)cc(OC)c1C(C)(C)O :: 1.92
5) COc1c(N(C)C)cc(Cc2cnc(N)nc2N)cc1N(C)C :: 1.86

# input for lookup
Q: Which value of logD has been reported for COc1cc(Cc2cnc(N)nc2N)cc(OC)c1I in the records?
Ans: 2.21
